Attribution: paper PMC10370593

System: MDA-MB-231 cells
Experiment: MTT cytotoxicity for IC50 and combination index
Format: cell-based
Settings: Homo sapiens, MDA-MB-231, 72 h
outcome.measure: IC50 (µM)
# output: bare number, implied unit µM

Using the record for `CN(C)C(=N)N=C(N)N` , state its measured IC50.
374

---

Test system: Erk1 gene
Test: Gene silencing by real-time PCR
Format: cell-based, human
Details: 72 h, MDA-MB-231, MR50, RT-PCR, mean ± SEM of three
Readings of Knockdown percentage, Erk1 for the listed substances
Please reply with the bare figure in % and do not write the unit itself.

Reference set, count: 4
- substance: "FAM-^γAbu-Arg- Lys-N^ε(stearyl)-Arg-Sar-Arg-Gpn-Arg- Lys-N^ε(stearyl)-Arg-Sar-Arg-NH2 [AB32]"
  outcome.measure: "Knockdown percentage, Erk1"
  reported: 70.6
- substance: "FAM-γAbu-Arg- Lys-N^ε(1-Pyrenebutyryl)-Arg-Sar-Arg-Gly-Arg- Lys-N^ε(1-Pyrenebutyryl)-Arg-Sar-Arg-NH2 [AB17]"
  outcome.measure: "Knockdown percentage, Erk1"
  reported: 85.9
- substance: "c[-Arg-^DHis-Arg-^DHis-Arg-Lys{Lys(linoleyl)2}-Arg-^DHis-Arg-^DHis-Arg-Glu-]-Lys(FAM)-NH2 (head to tail) [Peptide 6, reference compound]"
  outcome.measure: "Knockdown percentage, Erk1"
  reported: 78.1
- substance: "FAM-γAbu-Arg- C^α-Octylgly -Arg-Sar-Arg-Gly-Arg- Lys-N^ε(D-alpha-Tocopherol succinyl)-Arg-Sar-Arg-NH2 [AB18]"
  outcome.measure: "Knockdown percentage, Erk1"
  reported: 89.1

Supply measured Knockdown percentage, Erk1 of FAM-γAbu-Arg-C^α-Octylgly-Arg-Sar-Arg-Gly-Arg-Lys-N^ε(1-Adamantyl)-Arg-Sar-Arg-NH2 [AB29] in your reply.
58.8
